target-or-system: PRMT6 (Homo sapiens, UniProt Q96LA8)
Sequence (Q96LA8 whole entry, species assumed): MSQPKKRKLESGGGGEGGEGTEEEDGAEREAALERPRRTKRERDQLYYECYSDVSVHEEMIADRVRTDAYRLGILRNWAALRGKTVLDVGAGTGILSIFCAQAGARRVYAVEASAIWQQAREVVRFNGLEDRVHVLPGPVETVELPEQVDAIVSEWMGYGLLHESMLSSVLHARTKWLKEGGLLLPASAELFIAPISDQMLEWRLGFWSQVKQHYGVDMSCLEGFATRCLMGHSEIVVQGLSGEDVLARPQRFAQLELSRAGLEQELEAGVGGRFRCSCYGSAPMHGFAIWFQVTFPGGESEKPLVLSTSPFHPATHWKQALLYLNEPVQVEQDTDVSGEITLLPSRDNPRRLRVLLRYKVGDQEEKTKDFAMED
assay-comment: radioactive assay (Reaction Biology Corp.), inhibition of PRMT6
Assay type: biochemical
quantity-name: inhibition at 10 µM (%)

Past entries and their recorded results:
compound | quantity-name | measurement-unit | recorded-value
Nc1ncnc2c1ncn2[C@@H]1O[C@H](CSCCCNCc2cccc(-c3ccc(F)c(O)c3)c2)[C@@H](O)[C@H]1O [Compound 10r] | inhibition at 10 µM | % | 74
Nc1ncnc2c1ncn2[C@@H]1O[C@H](CSCCNCc2cccc(-c3ccc(Cl)cc3)c2)[C@@H](O)[C@H]1O [Compound 10a] | inhibition at 10 µM | % | 57
Nc1ncnc2c1ncn2[C@@H]1O[C@H](CSCCNCc2cccc(Br)c2)[C@@H](O)[C@H]1O | inhibition at 10 µM | % | 58

A. N=C(NCCCSC[C@H]1O[C@@H](n2cnc3c(NCCCc4ccccc4)ncnc32)[C@H](O)[C@@H]1O)Nc1ccccc1 [Compound 19j]
B. Nc1ncnc2c1ncn2[C@@H]1O[C@H](CSCCNCc2cccc(-c3ccc(F)c(O)c3)c2)[C@@H](O)[C@H]1O [Compound 10f]
C. COc1cc2nc(-c3ccccc3O)nc(NCCSC[C@H]3O[C@@H](n4cnc5c(N)ncnc54)[C@H](O)[C@@H]3O)c2cc1OC [Compound 12h]
D. Nc1ncnc2c1ncn2[C@@H]1O[C@H](CSCCNCc2cccc(-c3cncnc3)c2)[C@@H](O)[C@H]1O [Compound 10g]
Please list these in order of increasing inhibition at 10 µM. Thank you! Output spec: a listing of the labels in the requested order.
C, D, B, A

----------
target-or-system: PRMT1 (Homo sapiens, UniProt Q99873)
Construct: made in house
Sequence (Q99873 whole entry, species assumed): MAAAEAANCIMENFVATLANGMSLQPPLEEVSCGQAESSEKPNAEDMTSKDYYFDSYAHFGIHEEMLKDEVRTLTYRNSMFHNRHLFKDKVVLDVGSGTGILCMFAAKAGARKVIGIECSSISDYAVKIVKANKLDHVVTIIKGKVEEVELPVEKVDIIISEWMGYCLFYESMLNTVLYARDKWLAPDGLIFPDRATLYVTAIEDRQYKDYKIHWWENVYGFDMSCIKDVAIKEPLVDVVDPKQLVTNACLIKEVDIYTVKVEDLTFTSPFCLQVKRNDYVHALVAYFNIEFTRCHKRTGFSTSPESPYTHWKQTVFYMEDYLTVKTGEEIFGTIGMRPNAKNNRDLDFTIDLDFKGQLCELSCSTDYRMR
assay-comment: SAHH-coupled fluorescence assay, inhibition of PRMT1
Format: biochemical
quantity-name: inhibition at 10 µM (%)

Past entries and their recorded results:
molecule | inhibition at 10 µM [%]
N=C(NCCCSC[C@H]1O[C@@H](n2cnc3c(NCCCc4ccccc4)ncnc32)[C@H](O)[C@@H]1O)NCC1CCC1 | 80
N=C(NCCCSC[C@H]1O[C@@H](n2cnc3c(N)ncnc32)[C@H](O)[C@@H]1O)Nc1ccccc1 | 94
Nc1ncnc2c1ncn2[C@@H]1O[C@H](CSCCNCc2cccc(-c3cccc4cn[nH]c34)c2)[C@@H](O)[C@H]1O [Compound 10h] | 1

A. Nc1ncnc2c1ncn2[C@@H]1O[C@H](CSCCNCc2cccc(-c3cccc(F)c3)c2)[C@@H](O)[C@H]1O [Compound 10c]
B. N=C(NCCCSC[C@H]1O[C@@H](n2cnc3c(N)ncnc32)[C@H](O)[C@@H]1O)Nc1cccc(-c2cccc(F)c2)c1
Larger number for inhibition at 10 µM: A , or B ? Indicate which entry you chose by stating its label.
B
(B: 96%, A: 11%)

----------
target-or-system: PRMT8 (Homo sapiens)
Sequence (Q9NR22 whole entry, species assumed): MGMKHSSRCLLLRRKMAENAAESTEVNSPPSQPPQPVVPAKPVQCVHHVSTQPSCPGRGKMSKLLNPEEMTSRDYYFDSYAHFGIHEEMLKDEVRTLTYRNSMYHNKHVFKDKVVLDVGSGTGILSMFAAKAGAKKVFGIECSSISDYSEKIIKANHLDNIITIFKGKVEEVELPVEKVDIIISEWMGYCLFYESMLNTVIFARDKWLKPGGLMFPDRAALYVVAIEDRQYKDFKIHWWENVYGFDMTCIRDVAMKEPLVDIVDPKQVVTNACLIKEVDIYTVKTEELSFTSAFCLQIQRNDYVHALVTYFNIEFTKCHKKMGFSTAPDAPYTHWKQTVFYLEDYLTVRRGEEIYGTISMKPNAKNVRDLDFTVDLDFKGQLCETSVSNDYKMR
assay-comment: radioactive assay (Reaction Biology Corp.), inhibition of PRMT8
Format: biochemical
quantity-name: inhibition at 10 µM (%)

Past entries and their recorded results:
molecule | recorded-value
Nc1ncnc2c1ncn2[C@@H]1O[C@H](CSCCNC(=O)NC2CCCCC2)[C@@H](O)[C@H]1O | -10
COc1cc2nc(-c3ccccc3O)nc(NCCSC[C@H]3O[C@@H](n4cnc5c(N)ncnc54)[C@H](O)[C@@H]3O)c2cc1OC [Compound 12h] | 18
Nc1ncnc2c1ncn2[C@@H]1O[C@H](CSCCNC(=O)NCc2ccc3cnccc3c2)[C@@H](O)[C@H]1O | -2
Nc1ncnc2c1ncn2[C@@H]1O[C@H](CSCCNCc2cccc(-c3ccoc3)c2)[C@@H](O)[C@H]1O [Compound 10d] | 44
Nc1ncnc2c1ncn2[C@@H]1O[C@H](CSCCOc2ccc(-c3ccc(F)c(O)c3)cc2)[C@@H](O)[C@H]1O [Compound 14d] | 42

I. Nc1ccc(-c2ccc(CNC(=O)NCCSC[C@H]3O[C@@H](n4cnc5c(N)ncnc54)[C@H](O)[C@@H]3O)cc2)cc1
II. N=C(NCCCSC[C@H]1O[C@@H](n2cnc3c(N)ncnc32)[C@H](O)[C@@H]1O)Nc1cccc(-c2ccc(F)c(O)c2)c1
Larger number for inhibition at 10 µM: I , or II ? Indicate which entry you chose by stating its label.
II
(II: 99%, I: 0%)

----------
Tested on: PRMT4
assay-comment: radioactive assay (Reaction Biology Corp.), inhibition of PRMT4
Type: biochemical
quantity-name: IC50 (nM)

a. Nc1ncnc2c1ncn2[C@@H]1O[C@H](CSCCNC(=O)Nc2cccc3ccccc23)[C@@H](O)[C@H]1O
b. Nc1ncnc2c1ncn2[C@@H]1O[C@H](CSCCCNCc2cccc(-c3cncnc3)c2)[C@@H](O)[C@H]1O [Compound 10s]
c. Nc1ncnc2c1ncn2[C@@H]1O[C@H](CSCCNCc2cccc(-c3ccoc3)c2)[C@@H](O)[C@H]1O [Compound 10d]
# desc sort on IC50 across 3 molecules Output spec: a listing of the labels in the requested order.
b, c, a

----------
target-or-system: PRMT3 (Homo sapiens)
assay-comment: SAHH-coupled fluorescence assay, inhibition of PRMT3
Format: biochemical
Design: PRMT3 (residues 211-531) was cloned into the pET28a-MHL expression vector; tag of the pET28a-MHL vector (not described); made in house; host or cells: Escherichia coli BL21(DE3)
quantity-name: inhibition at 10 µM (%)

a. Nc1ncnc2c1ncn2[C@@H]1O[C@H](CSCCNC(=O)NCc2ccc(-c3ccccc3O)cc2)[C@@H](O)[C@H]1O
b. COc1cc2nc(-c3ccc(F)c(O)c3)nc(NCCSC[C@H]3O[C@@H](n4cnc5c(N)ncnc54)[C@H](O)[C@@H]3O)c2cc1OC [Compound 12f]
c. Nc1ncnc2c1ncn2[C@@H]1O[C@H](CSCCOc2ccc(-c3ccoc3)cc2)[C@@H](O)[C@H]1O [Compound 14c]
Going from lowest to highest recorded inhibition at 10 µM, rank the entries listed above. Output spec: a listing of the labels in the requested order.
c, b, a
(c: 6%, b: 9%, a: 13%)

----------
target-or-system: PRMT1 (Homo sapiens, UniProt Q99873)
Construct: made in house
assay-comment: SAHH-coupled fluorescence assay, inhibition of PRMT1
Assay type: biochemical
quantity-name: inhibition at 10 µM (%)

compound | target-or-system | measurement-unit | inhibition at 10 µM
N=C(NCCCSC[C@H]1O[C@@H](n2cnc3c(NCCCc4ccccc4)ncnc32)[C@H](O)[C@@H]1O)NC1CCC1 [Compound 19c] | PRMT1 (Homo sapiens, UniProt Q99873) | % | 80
N=C(NCCCSC[C@H]1O[C@@H](n2cnc3c(N)ncnc32)[C@H](O)[C@@H]1O)Nc1cccc(-c2n[nH]cc2C(F)(F)F)c1 [Compound 6q] | PRMT1 (Homo sapiens, UniProt Q99873) | % | 99
N=C(NCCCSC[C@H]1O[C@@H](n2cnc3c(N)ncnc32)[C@H](O)[C@@H]1O)Nc1cccc(-c2ccc3c(c2)OCCO3)c1 [Compound 6g] | PRMT1 (Homo sapiens, UniProt Q99873) | % | 87

----------
target-or-system: PRMT3 (Homo sapiens, UniProt O60678)
Sequence (O60678 211-531): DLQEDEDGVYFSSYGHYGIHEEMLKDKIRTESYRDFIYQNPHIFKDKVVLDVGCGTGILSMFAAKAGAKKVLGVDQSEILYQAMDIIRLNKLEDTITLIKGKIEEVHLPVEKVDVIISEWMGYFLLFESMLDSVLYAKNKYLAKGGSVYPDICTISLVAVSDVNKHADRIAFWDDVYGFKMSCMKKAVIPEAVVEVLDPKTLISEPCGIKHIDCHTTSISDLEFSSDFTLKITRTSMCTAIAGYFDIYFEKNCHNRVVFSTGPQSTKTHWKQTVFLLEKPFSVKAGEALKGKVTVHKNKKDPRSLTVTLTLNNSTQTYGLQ
assay-comment: SAHH-coupled fluorescence assay, inhibition of PRMT3
Type: biochemical
Parameters: PRMT3 (residues 211-531) was cloned into the pET28a-MHL expression vector; tag of the pET28a-MHL vector (not described); made in house; host or cells: Escherichia coli BL21(DE3)
quantity-name: inhibition at 10 µM (%)

Past entries and their recorded results:
compound | inhibition at 10 µM / %
N=C(NCCCSC[C@H]1O[C@@H](n2cnc3c(NCCCc4ccccc4)ncnc32)[C@H](O)[C@@H]1O)NCC1CC1 [Compound 19f] | 3
N=C(NCCSC[C@H]1O[C@@H](n2cnc3c(N)ncnc32)[C@H](O)[C@@H]1O)Nc1cccc(I)c1 [Compound 5c] | 38
N=C(NCCCSC[C@H]1O[C@@H](n2cnc3c(N)ncnc32)[C@H](O)[C@@H]1O)Nc1cccc(-c2cccc([N+](=O)[O-])c2)c1 [Compound 6p] | 0

I. N=C(NCCCSC[C@H]1O[C@@H](n2cnc3c(NCCCc4ccccc4)ncnc32)[C@H](O)[C@@H]1O)NCCc1ccccc1 [Compound 19l]
II. COc1cc2nc(-c3ccc(Cl)cc3)nc(NCCSC[C@H]3O[C@@H](n4cnc5c(N)ncnc54)[C@H](O)[C@@H]3O)c2cc1OC [Compound 12a]
III. N=C(NCCCN)NCCCSC[C@H]1O[C@@H](n2cnc3c(NCCCc4ccccc4)ncnc32)[C@H](O)[C@@H]1O [Compound 19i]
IV. N=C(NCCCSC[C@H]1O[C@@H](n2cnc3c(N)ncnc32)[C@H](O)[C@@H]1O)Nc1cccc(-c2ccc(Cl)cc2)c1 [Compound 6f]
V. Nc1ncnc2c1ncn2[C@@H]1O[C@H](CSCCNC(=O)Nc2cccc3ccccc23)[C@@H](O)[C@H]1O [Compound 7l]
Please list the entries, largest inhibition at 10 µM first. Output spec: a listing of the labels in the requested order.
IV, III, I, II, V

I. COc1cc2nc(-c3ccoc3)nc(NCCSC[C@H]3O[C@@H](n4cnc5c(N)ncnc54)[C@H](O)[C@@H]3O)c2cc1OC [Compound 12d]
II. N=C(NCCCSC[C@H]1O[C@@H](n2cnc3c(N)ncnc32)[C@H](O)[C@@H]1O)NCc1ccccc1 [Compound 5e]
Larger number for inhibition at 10 µM: I , or II ? Indicate which entry you chose by stating its label.
II
(II: 61%, I: 10%)
